Origin of measurements: paper PMC8699473

- ASSAY_PROTOCOL: Long-term stability in spiked pooled human plasma
- TEST_CONDITIONS: validation standard LLOV
The entries below are paired with their reported Long-term stability, 3 month, -80°C Accuracy [%].
Report the value in % with no unit label.

Below, 6 compounds whose answers are already recorded.
> print(dat)
                                   compound  obs.value
1  O=C1CCC(N2C(=O)c3ccccc3C2=O)C(=O)N1 (stereo not drawn) [Thalidomide]       76.7
2  CS(=O)(=O)CCNCc1ccc(-c2ccc3ncnc(Nc4ccc(OCc5cccc(F)c5)c(Cl)c4)c3c2)o1       95.3
3  CCOc1cc2ncc(C#N)c(Nc3ccc(OCc4ccccn4)c(Cl)c3)c2cc1NC(=O)/C=C/CN(C)C       81.4
4  C#Cc1cccc(Nc2ncnc3cc(OCCOC)c(OCCOC)cc23)c1      114.1
5  O=C1CN2Cc3c(ccc(Cl)c3Cl)N=C2N1 [Anagrelide]      118.8
6  Nc1cccc2c1CN(C1CCC(=O)NC1=O)C2=O (stereo not drawn) [Lenalidomide]       82.4

Summary for this compound, Cc1cc(Nc2ncc(Cl)c(Nc3ccccc3S(=O)(=O)C(C)C)n2)c(OC(C)C)cc1C1CCNCC1 : Long-term stability, 3 month, -80°C Accuracy [%] is 100.3

Record summary for CS(=O)(=O)c1ccc(C(=O)Nc2ccc(Cl)c(-c3ccccn3)c2)c(Cl)c1 : reported Long-term stability, 3 month, -80°C Accuracy [%] = 84.4

get_value(item= C[C@H]1Oc2cc(cnc2N)-c2c(nn(C)c2C#N)CN(C)C(=O)c2ccc(F)cc21 , readout=Long-term stability, 3 month, -80°C Accuracy [%]) returns 93.2

###

- ASSAY_PROTOCOL: Freeze-thaw stability in spiked pooled human plasma
- Format: physicochemical
- TEST_CONDITIONS: validation standard MOV
VALUE_KIND: Freeze-Thaw Accuracy [%]

Sure, the documented Freeze-Thaw Accuracy [%] for Nc1cccc2c1C(=O)N(C1CCC(=O)NC1=O)C2=O (stereo not drawn) [Pomalidomide] is 90.1%

response.value for COC(=O)c1ccc2c(c1)NC(=O)/C2=C(\Nc1ccc(N(C)C(=O)CN2CCN(C)CC2)cc1)c1ccccc1 [Nintedanib] (field: Freeze-Thaw Accuracy [%]) = 96.9%

###

- ASSAY_PROTOCOL: Long-term stability in spiked pooled human plasma
- TEST_CONDITIONS: validation standard LLOV
VALUE_KIND: Long-term stability, 3 month, -80°C Accuracy [%] (%)
Kindly answer with a numeric value in %, unit omitted.

Below, each entry is followed by its recorded Long-term stability, 3 month, -80°C Accuracy [%] result.
> print(dat)
                                   compound  obs.value
1  C[C@@H](Oc1cc(-c2cnn(C3CCNCC3)c2)cnc1N)c1c(Cl)ccc(F)c1Cl       73.9
2  NC(=O)c1cccc2cn(-c3ccc([C@@H]4CCCNC4)cc3)nc12       95.4
3  Cc1ccc(NC(=O)c2ccc(CN3CCN(C)CC3)cc2)cc1Nc1nccc(-c2cccnc2)n1       18.2

Lab note: measured Long-term stability, 3 month, -80°C Accuracy [%] of Cc1cn(-c2cc(NC(=O)c3ccc(C)c(Nc4nccc(-c5cccnc5)n4)c3)cc(C(F)(F)F)c2)cn1 was 93.1

Sure, the documented Long-term stability, 3 month, -80°C Accuracy [%] for COc1cc2ncnc(Nc3ccc(F)c(Cl)c3)c2cc1OCCCN1CCOCC1 is 99.5
